Test system: Aeromonas 1 (Aeromonas sp. AE235)
assay_summary: relative growth (AUC of 72 h growth curve relative to DMSO control, dAUC) (ratio); higher = more growth (less inhibition), active = hit call of the paper
conditions_used: 20 µM
Would you mind labelling by relative growth? At or over 1 is rule met, under is rule not met.

Query string: Is it the case that CC(C)N1C(=O)N(c2ccccc2)CS/C1=N\C(C)(C)C has relative growth reaching or exceeding 1?
Result string: rule met

----------
Tested on: Pseudomonas 3 (Pseudomonas mandelii)
assay_summary: relative growth (AUC of 72 h growth curve relative to DMSO control, dAUC) (ratio); higher = more growth (less inhibition), active = hit call of the paper;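 active = growth AUC significantly below the DMSO wells by Dunnett test; inactive = the rest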
conditions_used: 20 µM
Thanks in advance; please answer with one of these: YES for active, NO for inactive

CON(C)C(=O)Nc1ccc(Cl)c(Cl)c1
NO

Query string: Outcome? CC(C)N(C)S(=O)(=O)NC(=O)c1cc(-n2c(=O)cc(C(F)(F)F)n(C)c2=O)c(F)cc1Cl
Result string: NO

Query string: Outcome? CCOc1cc(Oc2ccc(C(F)(F)F)cc2Cl)ccc1[N+](=O)[O-]
Result string: NO

Query string: Outcome? COCc1cnc(C2=NC(C)(C(C)C)C(=O)N2)c(C(=O)O)c1 (stereo not given)
Result string: NO

Query string: Outcome? COP(=S)(OC)Oc1ccc(SC)c(C)c1
Result string: NO

Query string: Outcome? CCOP(=S)(OCC)Oc1cc(C)nc(C(C)C)n1
Result string: NO

Query string: Outcome? CCCCc1c(C)nc(NCC)nc1OS(=O)(=O)N(C)C
Result string: NO

Query string: Outcome? COC(=O)Nc1nc2ccccc2[nH]1
Result string: NO

Query string: Outcome? CCNC(=O)NC(=O)/C(C#N)=N/OC
Result string: NO

Query string: Outcome? COC(=O)c1ccccc1S(=O)(=O)NC(=O)Nc1nc(C)nc(OC)n1
Result string: NO

Query string: Outcome? COc1ccc(-c2ccccc2)cc1NNC(=O)OC(C)C
Result string: NO

Query string: Outcome? CC(C)CC(C)c1sccc1NC(=O)c1cn(C)nc1C(F)(F)F (stereo not given)
Result string: NO

Query string: Outcome? CN/C(=N/CC1CCOC1)N[N+](=O)[O-] (stereo not given)
Result string: NO

Query string: Outcome? O=C(Nc1ccc(F)cc1F)c1cccnc1Oc1cccc(C(F)(F)F)c1
Result string: NO

Query string: Outcome? CC(Oc1ccc(Oc2nc3ccc(Cl)cc3o2)cc1)C(=O)O (stereo not given)
Result string: NO

Query string: Outcome? O=[N+]([O-])c1cc(C(F)(F)F)c(Cl)c([N+](=O)[O-])c1Nc1ncc(C(F)(F)F)cc1Cl
Result string: YES

Query string: Outcome? N#Cc1nn(-c2c(Cl)cc(C(F)(F)F)cc2Cl)c(N)c1[S+]([O-])C(F)(F)F (stereo not given)
Result string: NO

Query string: Outcome? CC(C)(C)c1ccc(CSc2cnn(C(C)(C)C)c(=O)c2Cl)cc1
Result string: NO

Query string: Outcome? CC1(C)C(C=C(Cl)Cl)C1C(=O)OC(C#N)c1ccc(F)c(Oc2ccccc2)c1 (stereo not given)
Result string: NO

Query string: Outcome? C[C@@H]1[C@@H](c2ccc(Cl)cc2)SC(=O)N1C(=O)NC1CCCCC1
Result string: NO

Query string: Outcome? CC[C@H]1CCC[C@H](O[C@H]2CC[C@H](N(C)C)[C@@H](C)O2)[C@@H](C)C(=O)C2=C[C@@H]3[C@@H](C=C(C)[C@@H]4C[C@@H](O[C@@H]5O[C@@H](C)[C@H](OC)[C@@H](OC)[C@H]5OC)C[C@@H]34)[C@@H]2CC(=O)O1.CC[C@H]1CCC[C@H](O[C@H]2CC[C@H](N(C)C)[C@@H](C)O2)[C@@H](C)C(=O)C2=C[C@H]3[C@@H]4C[C@H](O[C@@H]5O[C@@H](C)[C@H](OC)[C@@H](OC)[C@H]5OC)C[C@H]4C=C[C@H]3C2CC(=O)O1
Result string: NO

Query string: Outcome? N#Cc1sc2c(=O)c3ccccc3c(=O)c=2sc1C#N
Result string: YES

Query string: Outcome? CC(C)N(C(=O)COc1nnc(C(F)(F)F)s1)c1ccc(F)cc1
Result string: NO
